biological target: T1, recombinant human CD3 epsilon/delta heterodimer (human, UniProt P07766 23-126; P04234 22-105); test: BLI (Octet), mAb 5 ug/mL on FAB2G sensor, hCD3 E/D 200-50 nM
T1 construct: Recombinant heterodimer used as analyte in Octet; also called hCD3 E/D; human CD3E/D
T1 sequence (P07766 23-126, stated change not applied, chain 1 of 2): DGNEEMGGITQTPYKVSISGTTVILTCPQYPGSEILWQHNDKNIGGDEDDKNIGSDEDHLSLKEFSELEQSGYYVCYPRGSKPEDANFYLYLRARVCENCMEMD
T1 sequence (P04234 22-105, stated change not applied, chain 2 of 2): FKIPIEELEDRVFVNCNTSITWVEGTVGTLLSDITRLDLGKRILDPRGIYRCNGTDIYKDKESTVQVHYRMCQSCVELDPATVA
reported_endpoint: pKd
A value of pKd is the negative decimal logarithm of a concentration given in moles per litre.

- ABL-CD3-64 (antibody, V domains shown, mAb purified from hybridoma; chimeric AlivaMab IgG (human VH, CH1 and upper hinge; mouse middle hinge, CH2, CH3; human light chain)) VH: EVQVAESGGGLVKPGGSLRLSCAASGFTFSRYSMNWVRQAPGKGLEWVSSISSSGSYTYYADSVKGRFTISRDNAKNSLYLQMNSLRAEDTAVYYCVRERGKGAGMDVWGQGTTVTVSS VL: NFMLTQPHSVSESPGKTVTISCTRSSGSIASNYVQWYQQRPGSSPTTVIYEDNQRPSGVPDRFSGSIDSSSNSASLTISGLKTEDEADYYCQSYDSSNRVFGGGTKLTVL: 7.50

INPUT: Which value of pKd has been reported for ABL-CD3-72 (antibody, V domains shown, mAb purified from hybridoma; chimeric AlivaMab IgG (human VH, CH1 and upper hinge; mouse middle hinge, CH2, CH3; human light chain)) VH: EVQLVESGGGLVKPGGSLRLSCAASGFTFSTYIMNWVRQAPGKGLEWVSSISSSRSYIYYADSVKGRFTISRDNAKNSLYLQMNSLRAEDTAVYYCAREDRYRLFFDYWGQGTLVTVSS VL: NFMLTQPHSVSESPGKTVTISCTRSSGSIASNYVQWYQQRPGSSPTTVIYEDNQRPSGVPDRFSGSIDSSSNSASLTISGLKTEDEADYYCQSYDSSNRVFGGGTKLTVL in the records?
OUTPUT: 6.96

INPUT: I would be grateful if you could share the reported pKd for ABL-CD3-75 (antibody, V domains shown, mAb purified from hybridoma; chimeric AlivaMab IgG (human VH, CH1 and upper hinge; mouse middle hinge, CH2, CH3; human light chain)) VH: EVQLVESGGGLVKPGGSLRLSCAASGFTFSTYSLNWVRQAPGKGLEWVSSISVSSRYIYFADSVKGRFTISRDNAKNSLYLQMNSLRAEDTAVYYCARDRRELLLDYWGQGTLVTVSS VL: SYELTQPPSVSVSPGQTARITCSGDALPKKYAYWYQQKSGQAPVLVIYEDSKRPSGIPERFSGSSSGTMATLTISGAQVEDEADYYCYSTDSSGNHNWVFGGGTKLTVL .
OUTPUT: 7.53
